Here, each record is paired with measured T/C data.
# Tested on: P388 leukemia ip, CD2F1 mice, survival T/C
# Assay: NCI In Vivo Anticancer Drug Screen. Data for tumor model P388 Leukemia (intraperitoneal) in CD2F1 (CDF1) mice
# Measurement Parameters: endpoint: median survival time; dose: 50.0 mg/kg/injection; schedule: Q01DX005 (ip); vehicle: Klucel (hydroxypropylcellulose) (HPC); higher = longer survival
Toxic doses and inconclusive results are not listed.
Test Readout: T/C

Compound	Measured
CC(NC(=O)/C=C/c1ccco1)C(=O)NC(Cc1ccccc1)C(N)=O (configuration not stated)	104 % of control
N=C(N)c1ccc(N=Nc2c(O)ccc3cc4c(N=Nc5ccc(C(=N)N)cc5)c(O)ccc4cc23)cc1	110 % of control
CCN(CC)CCSC1CC2CC(C1C)C2(C)C (configuration not stated)	99 % of control
COc1ccc(C(=O)c2ccccc2)c(C(=O)O)c1	101 % of control
CNC(=O)OCc1cnc2ccc(OC)cc2c1COC(=O)NC	92 % of control
CCOc1c(OC)cc(C2c3cc4c(c(OCC)c3CC3COC(=O)C32)OCO4)cc1OC (configuration not stated)	86 % of control
CCOC(=O)Nc1nc2ccccc2n1CN1CCCC1	111 % of control
FC1(F)SC(F)(F)S1	108 % of control
Cc1cc(=O)c(C(=O)NC=O)c(C)o1	99 % of control
COc1cccc(C2Nc3ccccc3C(=O)N2N2CCOCC2)c1 (configuration not stated)	100 % of control
O=C(O)c1cc(-c2ccncc2)nc2ccccc12	99 % of control
Cc1nc([N+](=O)[O-])c(Sc2nncc(-c3ccccc3)n2)n1C	111 % of control
